Taken from patent US20260167623A1.

assayed.system: CDK2 (Homo sapiens)
Construct: High-Throughput Measurement of Cellular Endogenous CDK2; endogenous in cells
experiment.summary: Inhibition of CDK2: phospho-Rb (S807/811) HTRF measurement in OVCAR3 cells, 24 h
details: 24 h compound treatment, read-out: pRB_OVCAR3_24h
pIC50: −log10 of the molar value.
endpoint.name: pIC50

Annotate the compound Cn1c(=O)n(C2CCC(=O)NC2=O)c2cccc(N3CCN(CC4CCN(c5cc(S(=O)(=O)N6CCC(Nc7ncc(Cl)cn7)CC6)ccc5C#N)CC4)CC3)c21 (stereo not drawn) [Example 203] with its measured pIC50.
7.00 to 9.00

Annotate the compound Cn1nc(N2CCC(=O)NC2=O)c2ccc(N3CCC(CN4CCN(c5cccc(S(=O)(=O)N6CCC(Nc7ncc(Cl)cn7)CC6)c5)CC4)CC3)cc21 [Example 138] with its measured pIC50.
< 5.60

Annotate the compound O=C1CCN(c2noc3cc(C4CCN(CC5CCN(c6cccc(S(=O)(=O)N7CCC(Nc8ncc(C(F)(F)F)cn8)CC7)c6)CC5)CC4)ccc23)C(=O)N1 [Example 222] with its measured pIC50.
7.00 to 9.00
